# measured.on: EML4-ALK (Homo sapiens)
# Construct: endogenous in cells; host or cells: H3122 (NSCLC), single-cell clone after CRISPR knock-in of HiBit; the other entry of the earlier key: EML4 (Q9HC35, Echinoderm microtubule-associated protein-like 4)
# Sequence (Q9UM73 with tags, fused parts or gaps): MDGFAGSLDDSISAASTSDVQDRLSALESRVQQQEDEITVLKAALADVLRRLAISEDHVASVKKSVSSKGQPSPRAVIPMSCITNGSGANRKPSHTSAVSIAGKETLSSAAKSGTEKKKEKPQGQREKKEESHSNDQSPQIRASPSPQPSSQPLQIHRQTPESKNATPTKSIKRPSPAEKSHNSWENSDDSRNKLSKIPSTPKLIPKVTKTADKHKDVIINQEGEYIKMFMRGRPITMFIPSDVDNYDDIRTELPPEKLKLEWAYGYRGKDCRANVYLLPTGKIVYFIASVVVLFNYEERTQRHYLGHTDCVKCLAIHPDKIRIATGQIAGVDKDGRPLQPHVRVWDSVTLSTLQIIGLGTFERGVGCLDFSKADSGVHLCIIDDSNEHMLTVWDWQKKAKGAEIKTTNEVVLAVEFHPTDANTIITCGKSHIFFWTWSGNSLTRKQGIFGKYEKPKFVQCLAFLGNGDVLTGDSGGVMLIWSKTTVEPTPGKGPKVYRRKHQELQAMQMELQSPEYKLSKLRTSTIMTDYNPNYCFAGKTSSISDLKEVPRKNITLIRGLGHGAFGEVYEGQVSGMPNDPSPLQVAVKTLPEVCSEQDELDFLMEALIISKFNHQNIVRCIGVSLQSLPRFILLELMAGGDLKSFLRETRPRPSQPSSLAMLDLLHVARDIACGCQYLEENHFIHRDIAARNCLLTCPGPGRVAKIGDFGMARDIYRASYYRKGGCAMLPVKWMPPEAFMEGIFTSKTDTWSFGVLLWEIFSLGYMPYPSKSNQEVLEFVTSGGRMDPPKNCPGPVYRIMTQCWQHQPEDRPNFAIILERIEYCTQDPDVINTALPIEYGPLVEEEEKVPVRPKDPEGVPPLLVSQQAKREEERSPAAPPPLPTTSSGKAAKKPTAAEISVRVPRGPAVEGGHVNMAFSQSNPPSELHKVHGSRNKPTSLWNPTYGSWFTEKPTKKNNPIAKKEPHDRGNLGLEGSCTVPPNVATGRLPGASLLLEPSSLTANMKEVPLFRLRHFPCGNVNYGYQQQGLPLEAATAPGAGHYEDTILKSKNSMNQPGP
# method.summary: EML4-ALK HiBit degradation assay in CRISPR-tagged H3122 cells (Nano-Glo HiBit Lytic Detection)
# Assay type: cell-based
# condition.description: NCI-H3122, Table 1; average Dmax; read-out: Degradation Avg. Dmax
Listing of entries alongside the reported Dmax.
# number only, unit % dropped from output

In the examples that follow, each entry is paired with its recorded Dmax.
Please supply the value of reported Dmax for the item COc1cc(CCN(C)C(=O)CCOCCOCCNc2cccc3c2C(=O)N(C2CCC(=O)NC2=O)C3=O)c(C)cc1Nc1ncc(Cl)c(Nc2ccccc2S(=O)(=O)C(C)C)n1 (centres unmarked) [compound 4]
38.9

Return value of Dmax for input COc1cc(CCNCCCCCSC(C)(C)[C@H](NC(C)=O)C(=O)N2C[C@H](O)C[C@H]2C(=O)N[C@@H](C)c2ccc(-c3scnc3C)cc2)c(C)cc1Nc1ncc(Cl)c(Nc2ccccc2S(=O)(=O)C(C)C)n1 [Compound 48] , no commentary.
92.8

Consider the compound COc1cc(CCN(C)C(=O)CCCCCCCCC(=O)N[C@H](C(=O)N2C[C@H](O)C[C@H]2C(=O)N[C@@H](C)c2ccc(-c3scnc3C)cc2)C(C)(C)C)c(C)cc1Nc1ncc(Cl)c(Nc2ccccc2S(=O)(=O)C(C)C)n1 [compound 42] . State its measured Dmax.
47.3

Please give the documented Dmax of COc1cc(CCN(C)C(=O)CCCCCNc2cccc3c2C(=O)N(C2CCC(=O)NC2=O)C3=O)c(C)cc1Nc1ncc(Cl)c(Nc2ccccc2S(=O)(=O)C(C)C)n1 (centres unmarked) [compound 2]
31.4

More entries:
Consider the compound COc1cc(CCN(C)C(=O)CCOCCOCCOCC#Cc2cccc3c2C(=O)N(C2CCC(=O)NC2=O)C3=O)c(C)cc1Nc1ncc(Cl)c(Nc2ccccc2S(=O)(=O)C(C)C)n1 (centres unmarked) [compound 11] and give its recorded Dmax.
53.3
